Data origin, for the record: ChEMBL document CHEMBL1136904

Test Protocol: Intrinsic clearance in rat liver microsomes in presence of NADPH
Assay type: ADME, Microsome
Value Type: microsomal CLint (µL/min/mg)
Number in µL/min/mg, nothing else.

*Q* Answer with reported microsomal CLint of COc1ccc2[nH]c(C)c(CC(=O)N[C@@H](CCCCCC(=O)O)c3ncc(-c4ccc5ccccc5c4)[nH]3)c2c1
*A* 177

---

Test system: HeLa
Test Protocol: Antiproliferative activity against human HeLa cells after 72 hrs by celltiter-blue cell viability assay
Type: functional, cell-based
Value Type: pIC50
Field pIC50 (float): negative decimal logarithm of the concentration in molar.

Some solved cases for reference:
Chemical String: COc1ccc2[nH]c(C)c(CC(=O)N[C@@H](CCCCCC(=O)NC(C)C)c3ncc(-c4ccc5ccccc5c4)[nH]3)c2c1
Value Type: pIC50
Measured Value: 4.92
--
Chemical String: CNC(=O)CCCCC[C@H](NC(=O)Cc1c(C)[nH]c2ccc(OC)cc12)c1ncc(-c2ccc3ccccc3c2)[nH]1
Value Type: pIC50
Measured Value: 5.77
--
Chemical String: COc1ccc2[nH]c(C)c(CC(=O)N[C@@H](CCCCCC(=O)NS(=O)(=O)C(F)(F)F)c3ncc(-c4ccc5ccccc5c4)[nH]3)c2c1
Value Type: pIC50
Measured Value: 4.47

*Q* Return reported pIC50 for target or system HeLa, item COc1ccc2[nH]c(C)c(CC(=O)N[C@@H](CCCCCC(=O)N(C)C)c3ncc(-c4ccc5ccccc5c4)[nH]3)c2c1 .
*A* 5.42

*Q* Fill in pIC50 for CCC(=O)CCCCC[C@H](NC(=O)Cc1c(C)[nH]c2ccc(OC)cc12)c1ncc(-c2ccc3ccccc3c2)[nH]1 tested with HeLa.
*A* 6.70

*Q* Please look at COc1ccc2[nH]c(C)c(CC(=O)N[C@@H](CCCCCC(=O)NS(C)(=O)=O)c3ncc(-c4ccc5ccccc5c4)[nH]3)c2c1 and tell me its recorded pIC50 on HeLa.
*A* 5.10
